These entries and their values trace back to PubChem BioAssay (NCI).

# Test system: SK-MEL-2 melanoma
# experiment description: NCI tumour cell line growth inhibition, 48 h
List of TGI values.
Provide the reading as a plain figure in µM.

Worked examples follow.
>  <compound>
C#Cc1c(I)n(C2OC(CO[Si](C)(C)C(C)(C)C)C3OC(C)(C)OC32)c(=O)[nH]c1=O (centres undefined)

>  <quantity unit>
µM

>  <TGI>
26.1

$$$$
>  <compound>
O=C(/C=C\c1ccc(NCc2ccc(C(=O)O)cc2)cc1)CCl

>  <quantity unit>
µM

>  <TGI>
30.5

$$$$
>  <compound>
CC1=C(O)C(=O)C=C2C1=CC=C1[C@@]2(C)CC[C@@]2(C)[C@@H]3C[C@](C)(C(=O)O)CC[C@]3(C)CC[C@]12C

>  <quantity unit>
µM

>  <TGI>
0.219

$$$$

Consider the compound Br[C](Br)(Br)[Hg][c]1ccccc1 and give its measured TGI. 32

Consider the compound shown here: C1CCC([PH+](C2CCCCC2)C2CCCCC2[PH+](C2CCCCC2)C2CCCCC2)CC1.O=C(C1[CH-]CCCC1)C1CCCC[N-]1.[Au] (centres undefined) What is its recorded TGI? 2.02

----------
This listing pairs compounds with measured GI50.
# Test system: UACC-257 melanoma
# experiment description: NCI tumour cell line growth inhibition, 48 h

Sample answers from the record:
>  <compound>
C#Cc1c(I)n(C2OC(CO[Si](C)(C)C(C)(C)C)C3OC(C)(C)OC32)c(=O)[nH]c1=O (stereo not given)

>  <result value>
15.2 µM

$$$$
>  <compound>
Cc1ccc2[nH]c(O)c(N=Nc3ccc(S(N)(=O)=O)cc3)c2c1

>  <result value>
> 25 µM

$$$$

Can you share its GI50? I mean this compound: Cc1ccc(-c2nc3ccc(Cl)cc3c(=O)n2N2C(=O)CSC2c2ccccc2Cl)cc1 (stereo not given) > 100 µM

What value of GI50 has been recorded for this entry: CN(CCC#N)c1ccc(/C=C(\C#N)c2ccc(Br)cc2)cc1 > 100 µM

What value of GI50 has been recorded for this entry: COc1ccc(CCN2COc3c([C@@H](C)CCC=C(C)C)ccc(C)c3C2)cc1OC 2.93 µM

----------
# Tested on: HL-60(TB) leukemia
# experiment description: NCI tumour cell line growth inhibition, 48 h; in the data active means GI50 below about 0.43 µM; inactive means the rest
Answer with one of the outcomes given here: active, inactive

>  <mol smiles>
CCSc1nc(SCC)c2cn[nH]c2n1

>  <class label>
inactive

$$$$
>  <mol smiles>
C[C@H](O)C(=O)N1CCC(CCn2c(Sc3cc4c(cc3Br)OCO4)nc3c(N)ncnc32)CC1

>  <class label>
active

$$$$
>  <mol smiles>
CCCCON(OC(=O)c1ccc2ccc3cccc4ccc1c2c34)C(C)=O

>  <class label>
inactive

$$$$
>  <mol smiles>
CC(=O)N[C@H]1CSSC[C@@H](C(N)=O)NC(=O)[C@H](C(C)C)NC(=O)[C@H](C)NC(=O)[C@H](Cc2cnc[nH]2)NC1=O

>  <class label>
inactive

$$$$

Kindly consider the entry below.
Status in this test for CC1=C[C@H]2c3c(c(O)c(O)c4oc(-c5ccccc5)cc(=O)c34)[C@H](c3cc(O)c(O)c4oc(-c5ccccc5)cc(=O)c34)[C@H]2C(C)(C)C1 ? inactive

----------
# Test system: NCI-H522 lung
# experiment description: NCI tumour cell line growth inhibition, 48 h; in the data active = GI50 below about 0.43 µM; inactive = the rest
Hi there, use one of these labels in your reply, thanks! class 1 = active, class 0 = inactive

>  <mol smiles>
O=c1c2ccccc2c(=O)c2c1[nH]c1c(-c3ccccc3)c(-c3ccccc3)c(=O)c12

>  <class label>
class 0

$$$$
>  <mol smiles>
CCn1c(SCc2ccc(C)cc2)nnc1-c1nn(-c2ccc(Cl)cc2Cl)c(-c2ccc(Cl)cc2)c1C

>  <class label>
class 0

$$$$
>  <mol smiles>
O=c1cc(NC2CCN(CCCc3ccccc3)CC2)c2cc(Cl)ccc2o1

>  <class label>
class 0

$$$$
>  <mol smiles>
CN(C)C(=O)[C@H](O)[C@H](Cc1ccccc1)NC(=O)c1cc2cc(Cl)ccc2[nH]1

>  <class label>
class 0

$$$$
>  <mol smiles>
C1C[OH+]CC[OH+]CC[OH+]CC[OH+]CC[OH+]1.[Cl-].[V]

>  <class label>
class 0

$$$$
>  <mol smiles>
CC1(C)[C@@H](OC(N)=O)[C@H]2O[C@H]2[C@]2(C=O)[C@H]3CC[C@]4(C)[C@@H](c5ccc(=O)oc5)[C@@H](Cl)C[C@]4(O)C3=CC[C@@H]12

>  <class label>
class 1

$$$$
>  <mol smiles>
Cc1ncc(CCCN(C)C)cc1Nc1ncc2c(n1)-c1ccc(C(F)(F)F)cc1NC(=S)C2

>  <class label>
class 1

$$$$
>  <mol smiles>
COc1cccc2c(=O)c3c(sc12)c(N1CCNCC1)nc1ccccc13

>  <class label>
class 0

$$$$

Please examine the following record next.
# outcome recorded in this test, key = CCOc1cc(C(C)(C)C)ccc1C1=N[C@@](C)(c2ccc(Cl)cc2)[C@@](C)(c2ccc(Cl)cc2)N1C(=O)N1CCN(CCCS(C)(=O)=O)CC1 class 0
